Cited source: paper PMC6309922

molecular target: LchARH3 (Latimeria chalumnae, UniProt H3BCW1); construct: LchARH3 (GenBank: XP_005988572; aa residues 10-362); made in house; host or cells: E. coli Rosetta (DE3); assay: biochemical; type: binding; details: 100 μM metal salt; n = 6
Sequence (H3BCW1 10-356 limits assumed): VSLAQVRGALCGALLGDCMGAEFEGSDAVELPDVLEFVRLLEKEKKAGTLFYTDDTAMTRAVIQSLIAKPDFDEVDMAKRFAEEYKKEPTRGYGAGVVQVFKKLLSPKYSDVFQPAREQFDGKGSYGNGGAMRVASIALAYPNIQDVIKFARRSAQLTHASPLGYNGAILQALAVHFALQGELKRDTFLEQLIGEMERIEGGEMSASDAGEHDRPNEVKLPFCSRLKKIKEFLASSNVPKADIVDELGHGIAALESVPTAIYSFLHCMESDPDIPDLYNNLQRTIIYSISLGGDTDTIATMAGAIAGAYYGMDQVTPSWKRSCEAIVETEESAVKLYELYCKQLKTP
TM under 40 °C gets 1 (yes), anything at or over 40 °C gets 0 (no).

A record lists [Mg+2] [MgCl2, Magnesium chloride hexahydrate] . Is its TM below 40 °C?
0 (no)

A record lists [Ca+2] [CaCl2, Calcium chloride dehydrate] . Is its TM below 40 °C?
0 (no)

A record lists [Cl-].[Cl-].[Zn+2] [ZnCl2, Zinc chloride] . Is its TM below 40 °C?
1 (yes)

A record lists [Mn+2] [MnCl2, Manganese(II) chloride tetrahydrate] . Is its TM below 40 °C?
0 (no)
